System: H. influenzae 3201
Assay: MIC, agar dilution, HTM medium
Assay type: cell-based, Haemophilus influenzae
Settings: Haemophilus influenzae, read-out: MIC
readout: MIC (µg/mL)
Number in µg/mL, nothing else.

The measured MIC associated with CC[C@H]1OC(=O)[C@H](C)C(=O)[C@H](C)[C@@H](O[C@@H]2O[C@H](C)C[C@H](N(C)C)[C@H]2O)[C@](C)(OC)C[C@@H](C)C(=O)[C@H](C)[C@H]2[C@H](SCCn3cnc4c(N)ncnc43)C(=O)O[C@@]21C reads 4

----------
Test system: H. influenzae H28 HEL
Assay: MIC, agar dilution, HTM medium
Assay type: cell-based, Haemophilus influenzae
Details: Haemophilus influenzae, H28HEL, read-out: MIC
Each entry below lists one item and its recorded MIC value.
Number in µg/mL, nothing else.

Below, each entry is followed by its recorded MIC result.
- compound: "CC[C@H]1OC(=O)[C@H](C)[C@@H](O[C@H]2C[C@@](C)(OC)[C@@H](O)C(C)O2)[C@H](C)[C@@H](O[C@@H]2OC(C)C[C@H](N(C)C)[C@H]2O)[C@](C)(O)C[C@@H](C)CN(C)C(C)C(O)[C@]1(C)O (stereo partly drawn)"
  units.symbol: "µg/mL"
  MIC: 1
- compound: "CC[C@H]1OC(=O)[C@H](C)C(=O)[C@H](C)[C@@H](O[C@@H]2O[C@H](C)C[C@H](N(C)C)[C@H]2O)[C@](C)(OC)C[C@@H](C)C(=O)[C@H](C)[C@H]2[C@H](SCCn3cc(C)c(=O)[nH]c3=O)C(=O)O[C@@]21C"
  units.symbol: "µg/mL"
  MIC: 2
- compound: "CC[C@H]1OC(=O)[C@H](C)C(=O)[C@H](C)[C@@H](O[C@@H]2O[C@H](C)C[C@H](N(C)C)[C@H]2O)[C@](C)(OC)C[C@@H](C)C(=O)[C@H](C)[C@H]2N(CCCCn3cnc(-c4cccnc4)c3)C(=O)O[C@]12C"
  units.symbol: "µg/mL"
  MIC: 2
- compound: "CC[C@H]1OC(=O)[C@H](C)[C@@H](O[C@H]2C[C@@](C)(OC)[C@@H](O)[C@H](C)O2)[C@H](C)[C@@H](O[C@@H]2O[C@H](C)C[C@H](N(C)C)[C@H]2O)[C@](C)(OC)C[C@@H](C)C(=O)[C@H](C)[C@@H](O)[C@]1(C)O"
  units.symbol: "µg/mL"
  MIC: 4
- compound: "CC[C@H]1OC(=O)[C@H](C)[C@@H](O[C@H]2C[C@@](C)(OC)[C@@H](O)[C@H](C)O2)[C@H](C)[C@@H](O[C@@H]2O[C@H](C)C[C@H](N(C)C)[C@H]2O)[C@](C)(O)C[C@@H](C)C(=O)[C@H](C)[C@@H](O)[C@]1(C)O"
  units.symbol: "µg/mL"
  MIC: 2

The measured MIC associated with CC[C@H]1OC(=O)[C@H](C)C(=O)[C@H](C)[C@@H](O[C@@H]2O[C@H](C)C[C@H](N(C)C)[C@H]2O)[C@](C)(OC)C[C@@H](C)C(=O)[C@H](C)[C@H]2[C@H](SCCn3cnc4c(N)ncnc43)C(=O)O[C@@]21C reads 2
